Record form. Attribute: % PWH with concentration below efficacy threshold. Fill in for each entry.
Test system: HIV viral load
Assay remarks: Drug response in obese versus nonobese participants in the SHCS (concentration below efficacy threshold and viral load >50 copies/mL)
Cond: BMI 18.5–30 kg/m^2
Give bare numbers, in %.

Please review the entries below; each comes with its answer.
Compound | Target or system | Numeric readout
Cc1nnc(C(=O)NC(C)(C)c2nc(C(=O)NCc3ccc(F)cc3)c(O)c(=O)n2C)o1 [Raltegravir, raltegravir] | HIV viral load | 4
O=C(NCc1c(F)cc(F)cc1F)c1cn2c(c(O)c1=O)C(=O)N1[C@H]3CC[C@H](C3)O[C@@H]1C2 [Bictegravir, bictegravir] | HIV viral load | 1.5
Cn1c(Cn2ccc(C(F)(F)F)c(Oc3cc(Cl)cc(C#N)c3)c2=O)n[nH]c1=O [Doravirine, doravirine] | HIV viral load | 0

Fill in % PWH with concentration below efficacy threshold for each of the 4 compounds listed.
1. C[C@@H]1CCO[C@H]2Cn3cc(C(=O)NCc4ccc(F)cc4F)c(=O)c(O)c3C(=O)N12 [Dolutegravir, dolutegravir]
2. O=C1Nc2ccc(Cl)cc2[C@@](C#CC2CC2)(C(F)(F)F)O1 [Efavirenz, efavirenz]
3. Cc1cc(/C=C/C#N)cc(C)c1Nc1ccnc(Nc2ccc(C#N)cc2)n1 [Rilpivirine, rilpivirine]
4. Cc1cc(C#N)cc(C)c1Oc1nc(Nc2ccc(C#N)cc2)nc(N)c1Br [Etravirine, etravirine]

Result ::
[2.1, 2.3, 15, 32.1]

* * *

Assay remarks: Observed pharmacokinetics of antiretrovirals in nonobese and obese individuals (SHCS therapeutic drug monitoring data and literature studies, noncompartmental analysis)
Cond: human, plasma, po, Cmax, observed, nonobese individuals, nonobese (BMI range per drug), standard oral dose at steady state, GM; SHCS TDM data with or without literature data
Provide the recorded Cmax for the entries that follow.
One number for each entry, in ng/mL.

Example results:
Smiles representation | Quantity name | Numeric readout
O=C(NCc1c(F)cc(F)cc1F)c1cn2c(c(O)c1=O)C(=O)N1[C@H]3CC[C@H](C3)O[C@@H]1C2 | Cmax | 5240
O=C1Nc2ccc(Cl)cc2[C@@](C#CC2CC2)(C(F)(F)F)O1 | Cmax | 3170
CC(C)c1nc(CN(C)C(=O)N[C@H](C(=O)N[C@@H](Cc2ccccc2)C[C@H](O)[C@H](Cc2ccccc2)NC(=O)OCc2cncs2)C(C)C)cs1 | Cmax | 480

// moving on: another record for Cmax
Query :: Look at this compound and give its reported Cmax. C[C@@H]1CCO[C@H]2Cn3cc(C(=O)NCc4ccc(F)cc4F)c(=O)c(O)c3C(=O)N12
Result :: 3320

* * *

System: HIV viral load
Assay remarks: Drug response in obese versus nonobese participants in the SHCS (concentration below efficacy threshold and viral load >50 copies/mL)
Cond: BMI >30 kg/m^2
Label label 1 when % PWH with concentration below efficacy threshold is at or above 3%; otherwise label label 0.

Smiles representation | Target or system | Assigned category
O=C(NCc1c(F)cc(F)cc1F)c1cn2c(c(O)c1=O)C(=O)N1[C@H]3CC[C@H](C3)O[C@@H]1C2 | HIV viral load | label 0
Cc1cc(C#N)cc(C)c1Oc1nc(Nc2ccc(C#N)cc2)nc(N)c1Br | HIV viral load | label 1
O=C1Nc2ccc(Cl)cc2[C@@](C#CC2CC2)(C(F)(F)F)O1 | HIV viral load | label 1
C[C@@H]1CCO[C@H]2Cn3cc(C(=O)NCc4ccc(F)cc4F)c(=O)c(O)c3C(=O)N12 | HIV viral load | label 0
Cc1cc(/C=C/C#N)cc(C)c1Nc1ccnc(Nc2ccc(C#N)cc2)n1 | HIV viral load | label 0

Query :: Hello, I need to know if Cc1nnc(C(=O)NC(C)(C)c2nc(C(=O)NCc3ccc(F)cc3)c(O)c(=O)n2C)o1 has measured % PWH with concentration below efficacy threshold not below 3%. Thanks!
Result :: label 1

Query :: Identify whether the reported % PWH with concentration below efficacy threshold of the following molecule is 3% or greater: Cn1c(Cn2ccc(C(F)(F)F)c(Oc3cc(Cl)cc(C#N)c3)c2=O)n[nH]c1=O
Result :: label 1

* * *

Assign % PWH with virological failure amongst those with concentration below efficacy threshold to each entry below.
Test system: HIV viral load
Assay remarks: Drug response in obese versus nonobese participants in the SHCS (concentration below efficacy threshold and viral load >50 copies/mL)
Cond: BMI 18.5–30 kg/m^2, viral load above 50 copies/mL
Numbers only, in %.

Smiles representation | Target or system | Numeric readout
Cn1c(Cn2ccc(C(F)(F)F)c(Oc3cc(Cl)cc(C#N)c3)c2=O)n[nH]c1=O | HIV viral load | 0
C[C@@H]1CCO[C@H]2Cn3cc(C(=O)NCc4ccc(F)cc4F)c(=O)c(O)c3C(=O)N12 | HIV viral load | 0.3
O=C(NCc1c(F)cc(F)cc1F)c1cn2c(c(O)c1=O)C(=O)N1[C@H]3CC[C@H](C3)O[C@@H]1C2 | HIV viral load | 0
Cc1nnc(C(=O)NC(C)(C)c2nc(C(=O)NCc3ccc(F)cc3)c(O)c(=O)n2C)o1 | HIV viral load | 1.6
O=C1Nc2ccc(Cl)cc2[C@@](C#CC2CC2)(C(F)(F)F)O1 | HIV viral load | 1.1

# return % PWH with virological failure amongst those with concentration below efficacy threshold for each item in the list
1. Cc1cc(/C=C/C#N)cc(C)c1Nc1ccnc(Nc2ccc(C#N)cc2)n1
2. Cc1cc(C#N)cc(C)c1Oc1nc(Nc2ccc(C#N)cc2)nc(N)c1Br

Result ::
[1.9, 11.9]

* * *

Assay remarks: Observed pharmacokinetics of antiretrovirals in nonobese and obese individuals (SHCS therapeutic drug monitoring data and literature studies, noncompartmental analysis)
Cond: human, plasma, po, AUCt, observed, nonobese individuals, nonobese (BMI range per drug), standard oral dose at steady state, GM; SHCS TDM data with or without literature data
Method: We took several steps to analyse the impact of obesity on the ARVs exposure and response. First, we implemented our in-house PBPK model with our recently published virtual White obese population to simulate the pharmacokinetics of ARVs in nonobese and obese individuals. […] Finally, the clinical relevance of obesity-related changes on drug response was evaluated by analyzing HIV viral load and the corresponding TDM values in obese and nonobese individuals in the SHCS. […]
Quantity name: AUC(0-t) (ng·h/mL)
Numbers only, in ng·h/mL.

Smiles representation | Quantity name | Unit annotation | Numeric readout
O=C1Nc2ccc(Cl)cc2[C@@](C#CC2CC2)(C(F)(F)F)O1 | AUC(0-t) | ng·h/mL | 52200

Please look at the items below and tell me AUC(0-t) for each one, in order.
1. C[C@@H]1CCO[C@H]2Cn3cc(C(=O)NCc4ccc(F)cc4F)c(=O)c(O)c3C(=O)N12
2. CC(C)c1nc(CN(C)C(=O)N[C@H](C(=O)N[C@@H](Cc2ccccc2)C[C@H](O)[C@H](Cc2ccccc2)NC(=O)OCc2cncs2)C(C)C)cs1
3. O=C(NCc1c(F)cc(F)cc1F)c1cn2c(c(O)c1=O)C(=O)N1[C@H]3CC[C@H](C3)O[C@@H]1C2

Result ::
45400
5740
85800

* * *

Assay remarks: Observed pharmacokinetics of antiretrovirals in nonobese and obese individuals (SHCS therapeutic drug monitoring data and literature studies, noncompartmental analysis)
Cond: obese (BMI >=30, range per drug), standard oral dose at steady state; GM (mean for etravirine); SHCS TDM data with or without literature data
Rule: Cτ, observed, obese individuals of 200 ng/mL or more gives rule met; anything lower gives rule not met.

Smiles representation | Assigned category
O=C1Nc2ccc(Cl)cc2[C@@](C#CC2CC2)(C(F)(F)F)O1 | rule met
C[C@@H]1CCO[C@H]2Cn3cc(C(=O)NCc4ccc(F)cc4F)c(=O)c(O)c3C(=O)N12 | rule met
CC(C)c1nc(CN(C)C(=O)N[C@H](C(=O)N[C@@H](Cc2ccccc2)C[C@H](O)[C@H](Cc2ccccc2)NC(=O)OCc2cncs2)C(C)C)cs1 | rule not met
Cc1cc(C#N)cc(C)c1Oc1nc(Nc2ccc(C#N)cc2)nc(N)c1Br | rule met
Cc1nnc(C(=O)NC(C)(C)c2nc(C(=O)NCc3ccc(F)cc3)c(O)c(=O)n2C)o1 | rule not met

Query :: Does Cτ, observed, obese individuals meet or surpass 200 ng/mL for Cn1c(Cn2ccc(C(F)(F)F)c(Oc3cc(Cl)cc(C#N)c3)c2=O)n[nH]c1=O ?
Result :: rule met

Query :: Decide: Cτ, observed, obese individuals of Cc1cc(/C=C/C#N)cc(C)c1Nc1ccnc(Nc2ccc(C#N)cc2)n1 >= 200 ng/mL?
Result :: rule not met

* * *

Assay remarks: PBPK model virtual trials matched to the observed studies (model verification, nonobese vs obese)
Parameters: species or system human
Cond: nonobese individuals
Kindly state AUCt, Ratio Predicted/Observed, Nonobese for each of the entries shown.
Give bare numbers.

Field: AUCt, Ratio Predicted/Observed, Nonobese. Fill in for each record below.
1. Cc1cc(/C=C/C#N)cc(C)c1Nc1ccnc(Nc2ccc(C#N)cc2)n1
2. Cn1c(Cn2ccc(C(F)(F)F)c(Oc3cc(Cl)cc(C#N)c3)c2=O)n[nH]c1=O
3. O=C(NCc1c(F)cc(F)cc1F)c1cn2c(c(O)c1=O)C(=O)N1[C@H]3CC[C@H](C3)O[C@@H]1C2

Result ::
1.05
1.00
0.97

For each of the items listed, what is its AUCt, Ratio Predicted/Observed, Nonobese?
1. C[C@H](Cn1cnc2c(N)ncnc21)OCP(=O)(O)O
2. Nc1nc(=O)n([C@@H]2CS[C@H](CO)O2)cc1F

Result ::
1.06
1.10
